concentration at 4 h by entry:
assay: Plasma and brain pharmacokinetics after single oral administration in mice implanted intracranially with MDA-MB-361 cells; conditions: female, BALB/cAJcl-nu/nu, mouse, brain, po, 20 mg/kg
Write the answer as a number in ng/g, unit excluded.

Exercise: // returns reported concentration at 4 h for input CC#CC(=NOCC1COCCN1)c1ccc2ncnc(Nc3ccc(OCc4cccc(F)c4)c(Cl)c3)c2c1 (centres unmarked)
Key: 36.3

Shifting focus to the molecule that follows.
Exercise: // returns reported concentration at 4 h for input CS(=O)(=O)CCNCc1ccc(-c2ccc3ncnc(Nc4ccc(OCc5cccc(F)c5)c(Cl)c4)c3c2)o1 [Lapatinib, reference compound]
Key: 17

* * *

test: Plasma and brain pharmacokinetics after single oral administration in mice implanted intracranially with MDA-MB-361 cells; conditions: female, BALB/cAJcl-nu/nu, mouse, brain, po, 20 mg/kg
Tmax by entry:
Write the answer as a number in h, unit excluded.

Exercise: // returns reported Tmax for input CC#CC(=NOCC1COCCN1)c1ccc2ncnc(Nc3ccc(OCc4cccc(F)c4)c(Cl)c3)c2c1 (centres unmarked)
Key: 4

Shifting focus to the molecule that follows.
Exercise: // returns reported Tmax for input CS(=O)(=O)CCNCc1ccc(-c2ccc3ncnc(Nc4ccc(OCc5cccc(F)c5)c(Cl)c4)c3c2)o1 [Lapatinib, reference compound]
Key: 4

* * *

experiment: Plasma concentration by LC-MS/MS in the breast cancer IVM; format: in vivo, mice; settings: female, BALB/cAJcl-nu/nu, mouse, po, 50 mg/kg, BR3 IVM, 4 h after single oral 50 mg/kg
concentration at 4 h by entry:
Write the answer as a number in ng/mL, unit excluded.

Exercise: // returns reported concentration at 4 h for input CS(=O)(=O)CCNCc1ccc(-c2ccc3ncnc(Nc4ccc(OCc5cccc(F)c5)c(Cl)c4)c3c2)o1 [Lapatinib, reference compound]
Key: 2140

Continuing:
Exercise: // returns reported concentration at 4 h for input CC#CC(=NOCC1COCCN1)c1ccc2ncnc(Nc3ccc(OCc4cccc(F)c4)c(Cl)c3)c2c1 (centres unmarked) [Epertinib]
Key: 1300

* * *

assay: Plasma and brain pharmacokinetics after single oral administration in mice implanted intracranially with MDA-MB-361 cells; conditions: female, BALB/cAJcl-nu/nu, mouse, brain, po, 20 mg/kg
METRIC_NAME: concentration at 2 h
The number alone won't do; follow it with the unit.

Exercise: // returns reported concentration at 2 h for input CS(=O)(=O)CCNCc1ccc(-c2ccc3ncnc(Nc4ccc(OCc5cccc(F)c5)c(Cl)c4)c3c2)o1 [Lapatinib, reference compound]
Key: 10 ng/g

Shifting focus to the molecule that follows.
Exercise: // returns reported concentration at 2 h for input CC#CC(=NOCC1COCCN1)c1ccc2ncnc(Nc3ccc(OCc4cccc(F)c4)c(Cl)c3)c2c1 (centres unmarked)
Key: 23 ng/g

* * *

test: Quantitative MALDI-IMS of drug in brain metastases of the lung cancer IVM (NCI-H1975-luc); assay type: in vivo, mice; details: female, BALB/cAJcl-nu/nu, mouse, tumor (brain metastasis) in brain sections, 4 h after oral 100 mg/kg
METRIC_NAME: concentration at 4 h (ng/g)
Write the answer as a number in ng/g, unit excluded.

Exercise: // returns reported concentration at 4 h for input CC#CC(=NOCC1COCCN1)c1ccc2ncnc(Nc3ccc(OCc4cccc(F)c4)c(Cl)c3)c2c1 (centres unmarked)
Key: 6700

Shifting focus to the compound that follows.
Exercise: // returns reported concentration at 4 h for input CS(=O)(=O)CCNCc1ccc(-c2ccc3ncnc(Nc4ccc(OCc5cccc(F)c5)c(Cl)c4)c3c2)o1 [Lapatinib, reference compound]
Key: 7080

* * *

Test system: MDA-MB-361 cell line
Experiment: In vitro growth inhibition of parental cell line
Type: cell-based
Conditions: Homo sapiens
Text: We evaluated the inhibitory activity of epertinib on the in vitro growth of the parental cell line, MDA-MB-361. […] To compare the growth inhibitory activity of epertinib on the parental and metastatic (BR2) cell lines, we evaluated the antitumor activity of epertinib in both cell lines. […] To confirm the antitumor activity of epertinib in the IVM, we examined the effect of epertinib on the IVM transplanted BR2.
METRIC_NAME: pIC50
Bear in mind: pIC50 is minus log10 of a mol/L concentration; give just that figure.

Exercise: // returns reported pIC50 for input CC#CC(=NOCC1COCCN1)c1ccc2ncnc(Nc3ccc(OCc4cccc(F)c4)c(Cl)c3)c2c1 (stereo not shown)
Key: 7.58

* * *

test: Plasma and brain pharmacokinetics after single oral administration in mice implanted intracranially with MDA-MB-361 cells; conditions: female, BALB/cAJcl-nu/nu, mouse, brain, po, 20 mg/kg
METRIC_NAME: concentration at 1 h (ng/g)
Write the answer as a number in ng/g, unit excluded.

Exercise: // returns reported concentration at 1 h for input CS(=O)(=O)CCNCc1ccc(-c2ccc3ncnc(Nc4ccc(OCc5cccc(F)c5)c(Cl)c4)c3c2)o1 [Lapatinib, reference compound]
Key: 15.7

Shifting focus to the compound that follows.
Exercise: // returns reported concentration at 1 h for input CC#CC(=NOCC1COCCN1)c1ccc2ncnc(Nc3ccc(OCc4cccc(F)c4)c(Cl)c3)c2c1 (centres unmarked) [Epertinib]
Key: 12.8

* * *

concentration at 8 h by entry:
assay: Quantitative MALDI-IMS of drug in brain metastases of the breast cancer IVM (BR2, BR3); assay type: in vivo, mice; conditions: female, BALB/cAJcl-nu/nu, mouse, tumor (brain metastasis) in brain sections, po, 50 mg/kg, BR3 IVM, 8 h after single oral 50 mg/kg, IMS
Write the answer as a number in ng/g, unit excluded.

Exercise: // returns reported concentration at 8 h for input CC#CC(=NOCC1COCCN1)c1ccc2ncnc(Nc3ccc(OCc4cccc(F)c4)c(Cl)c3)c2c1 (centres unmarked)
Key: 2710

Shifting focus to the molecule that follows.
Exercise: // returns reported concentration at 8 h for input CS(=O)(=O)CCNCc1ccc(-c2ccc3ncnc(Nc4ccc(OCc5cccc(F)c5)c(Cl)c4)c3c2)o1 [Lapatinib, reference compound]
Key: 190

* * *

concentration at 4 h by entry:
assay: Quantitative MALDI-IMS of drug in brain metastases of the breast cancer IVM (BR2, BR3); assay type: in vivo, mice; conditions: female, BALB/cAJcl-nu/nu, mouse, tumor (brain metastasis) in brain sections, po, 50 mg/kg, BR3 IVM, 4 h after single oral 50 mg/kg, IMS
Write the answer as a number in ng/g, unit excluded.

Exercise: // returns reported concentration at 4 h for input CC#CC(=NOCC1COCCN1)c1ccc2ncnc(Nc3ccc(OCc4cccc(F)c4)c(Cl)c3)c2c1 (centres unmarked)
Key: 2700

Continuing:
Exercise: // returns reported concentration at 4 h for input CS(=O)(=O)CCNCc1ccc(-c2ccc3ncnc(Nc4ccc(OCc5cccc(F)c5)c(Cl)c4)c3c2)o1 [Lapatinib, reference compound]
Key: 200

* * *

concentration at 8 h by entry:
experiment: Plasma and brain pharmacokinetics after single oral administration in mice implanted intracranially with MDA-MB-361 cells; details: female, BALB/cAJcl-nu/nu nude, mouse, brain, po, 20 mg/kg
Write the answer as a number in ng/g, unit excluded.

Exercise: // returns reported concentration at 8 h for input CS(=O)(=O)CCNCc1ccc(-c2ccc3ncnc(Nc4ccc(OCc5cccc(F)c5)c(Cl)c4)c3c2)o1 [Lapatinib, reference compound]
Key: 5.8

Continuing:
Exercise: // returns reported concentration at 8 h for input CC#CC(=NOCC1COCCN1)c1ccc2ncnc(Nc3ccc(OCc4cccc(F)c4)c(Cl)c3)c2c1 (centres unmarked) [Epertinib]
Key: 23.8

* * *

test: Plasma and brain pharmacokinetics after single oral administration in mice implanted intracranially with MDA-MB-361 cells; conditions: female, BALB/cAJcl-nu/nu, mouse, plasma, po, 20 mg/kg
AUC(0-t) by entry:
The number alone won't do; follow it with the unit.

Exercise: // returns reported AUC(0-t) for input CC#CC(=NOCC1COCCN1)c1ccc2ncnc(Nc3ccc(OCc4cccc(F)c4)c(Cl)c3)c2c1 (centres unmarked)
Key: 1260 ng·h/mL

Shifting focus to the molecule that follows.
Exercise: // returns reported AUC(0-t) for input CS(=O)(=O)CCNCc1ccc(-c2ccc3ncnc(Nc4ccc(OCc5cccc(F)c5)c(Cl)c4)c3c2)o1 [Lapatinib, reference compound]
Key: 4110 ng·h/mL

* * *

test: Plasma and brain pharmacokinetics after single oral administration in mice implanted intracranially with MDA-MB-361 cells; settings: female, BALB/cAJcl-nu/nu, mouse, plasma, po, 20 mg/kg
concentration at 24 h by entry:
Write the answer as a number in ng/mL, unit excluded.

Exercise: // returns reported concentration at 24 h for input CS(=O)(=O)CCNCc1ccc(-c2ccc3ncnc(Nc4ccc(OCc5cccc(F)c5)c(Cl)c4)c3c2)o1 [Lapatinib, reference compound]
Key: 5.4

Shifting focus to the compound that follows.
Exercise: // returns reported concentration at 24 h for input CC#CC(=NOCC1COCCN1)c1ccc2ncnc(Nc3ccc(OCc4cccc(F)c4)c(Cl)c3)c2c1 (centres unmarked)
Key: 2.1

Each recorded value in this set is attributed to paper PMC5762859.
